Molecular target: hPIV-3 HN haemagglutinin function (Human parainfluenza 3 virus)
Sequence (P08492 whole entry): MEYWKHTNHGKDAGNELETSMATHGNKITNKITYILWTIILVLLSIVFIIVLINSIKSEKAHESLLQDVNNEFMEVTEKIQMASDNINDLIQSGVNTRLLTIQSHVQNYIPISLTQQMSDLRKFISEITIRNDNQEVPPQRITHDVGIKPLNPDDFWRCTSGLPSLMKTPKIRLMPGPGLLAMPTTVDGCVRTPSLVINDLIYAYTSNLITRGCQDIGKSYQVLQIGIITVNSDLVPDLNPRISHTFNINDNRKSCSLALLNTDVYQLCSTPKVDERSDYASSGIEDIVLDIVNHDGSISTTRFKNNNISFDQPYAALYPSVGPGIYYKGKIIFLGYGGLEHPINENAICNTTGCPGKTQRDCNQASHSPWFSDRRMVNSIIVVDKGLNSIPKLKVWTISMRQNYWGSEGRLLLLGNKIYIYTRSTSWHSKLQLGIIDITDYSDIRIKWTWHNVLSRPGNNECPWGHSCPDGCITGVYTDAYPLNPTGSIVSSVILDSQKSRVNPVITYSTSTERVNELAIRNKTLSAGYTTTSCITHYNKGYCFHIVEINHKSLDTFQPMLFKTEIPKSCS
Test: cell-based
Conditions: HI IC50, human red blood cells, 4 °C, 90 min
property_measured: IC50 (µM)
Field format: number, assumed µM, no unit text.

| compound_smiles | property_measured | measurement |
| --- | --- | --- |
| CC(C)C(=O)N[C@H]1[C@H]([C@H](O)[C@H](O)CO)O[C@@](F)(C(=O)O)[C@@H](F)[C@@H]1n1cc(-c2ccccc2)nn1 | IC50 | 775 |

Shifting focus to the compound that follows.
Exercise: Please report the recorded IC50 for COCc1cn([C@@H]2[C@@H](NC(=O)C(C)C)[C@H]([C@H](O)[C@H](O)CO)O[C@@](F)(C(=O)O)[C@H]2F)nn1 .
Key: 57

###

Catalogue of pIC50 values
Test system: hPIV-3
Test: Virus growth inhibition by in situ ELISA in A549 cells
Details: read-out: Virus growth inhibition IC50; in situ ELISA, human cell line A549, 36–40 h
Hey, just a heads up that pIC50 is the negative log base 10 of the concentration in molar.

Solved entries (count: 3):
| compound | pIC50 |
| --- | --- |
| COCc1cn([C@@H]2[C@@H](NC(=O)C(C)C)[C@H]([C@H](O)[C@H](O)CO)O[C@@](F)(C(=O)O)[C@H]2F)nn1 | 4.84 |
| CC(C)C(=O)N[C@H]1[C@H]([C@H](O)[C@H](O)CO)OC(C(=O)O)=C[C@@H]1n1cc(-c2ccccc2)nn1 [Inhibitor 5, reference compound] | 4.95 |
| COCc1cn([C@H]2C=C(C(=O)O)O[C@@H]([C@H](O)[C@H](O)CO)[C@@H]2NC(=O)C(C)C)nn1 [Inhibitor 6, reference compound] | 4.08 |

Shifting focus to the compound that follows.
Exercise: Please report the recorded pIC50 for CC(C)C(=O)N[C@H]1[C@H]([C@H](O)[C@H](O)CO)O[C@@](F)(C(=O)O)[C@@H](F)[C@@H]1n1cc(-c2ccccc2)nn1 .
Key: 4.40
